# assay-target: T1, DFNB31_1, Q9P202
# T1 sequence (Q9P202 135-233, limits assumed, looked up): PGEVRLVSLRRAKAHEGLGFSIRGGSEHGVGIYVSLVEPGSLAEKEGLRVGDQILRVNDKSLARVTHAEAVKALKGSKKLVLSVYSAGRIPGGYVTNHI
# assay: holdup assay
# Set-up: key: below the threshold = too weak to quantify, mostly under pKd 3.1 to 4
# condition-summary: plain residues with an end cap or a label only (N-terminal biotin on a linker: ttds)
Respond with met for pKd values of 4 and above, not met for values below.

For orientation, consider the following solved cases.
QSARYRDTEL [TJP2, Q9UDY2]	not met
SSRTRRETQL [HPV16-E6, P03126]	not met
RSLEEEESQL [GRASP, Q7Z6J2]	not met
STLTIFETAL [ABCC4, O15439]	met

// switching to the query binder
Task item: Is the recorded value of pKd equal to or greater than 4 for this binder? TVASEKESVM [SLC1A5, Q15758]
Reply: not met

These data points were gathered from paper PMC9482650.
